Target: Metabotropic glutamate receptor 8 (Rattus norvegicus)
Test: mGluR8 Gi/Go-coupled signaling modulation – cell-based, rat, thallium flux, HTS, primary screen (AID 488969)
Details: HEK293 rat mGluR8, GIRK (G protein-gated inwardly rectifying potassium channel) thallium flux, FluoZin2; at 10 µM; stronger effect = higher value; submaximal glutamate (EC20) added with thallium
Whole data set: some 110,000 compounds, median “z-score” near -0.1, cut for the highest 2% near 2. This excerpt belongs to a sample that is enriched for the highest values.
Binning of z-score into classes: bottom end (below -0.04), midrange (-0.04 to below 1), top end (1 or more)

Reference set (3 entries):
Q: Form: Item = "COc1cccc(-c2nc(=S)c3c(n2Cc2ccco2)CCCC3)c1" ; Class = ?
Ans: midrange

Q: # classify by z-score band: "COc1ccc(C(=O)N(Cc2ccccc2)Cc2cc3cc4c(cc3[nH]c2=O)OCCO4)cc1"
Ans: midrange

Q: Category of CC(Oc1ccc(Cl)cc1Cl)C(=O)NC(=S)N1CCc2ccccc21 (stereo not given) , please.
Ans: top end

New cases:
Q: State the band of "Cc1nnc(NC(=O)c2ccco2)s1"
Ans: top end

Q: Which class does Cc1cccc(OC(C)C(=O)N2CCCc3ccccc32)c1 (stereo not given) fall in?
Ans: bottom end

Q: Lab note: sort "Cc1nnc2c3ccccc3c(-c3cccc4ccccc34)nn12" into the matching z-score band.
Ans: bottom end

Q: Place this compound in its band: "O=C(Nc1cccnc1)Nc1ccccc1Cl"
Ans: midrange

Q: Kindly state the category for this compound: "COc1ccc(OCC(=O)NC(=S)N2CCCc3ccccc32)cc1"
Ans: top end

Q: # bin label for "S=c1nc(-c2ccccc2)n(Cc2ccco2)c2c1CCCC2"
Ans: top end

Q: Could you place "Cc1cc(OC(C)C)c2c(-c3ccccc3)cc(=O)oc2c1" in its proper category? Many thanks.
Ans: bottom end

Q: Assign a bin to C=CCC(NCc1ccccc1)c1ccco1 (stereo not given)
Ans: top end

Q: Sort into band: "CN(CCCC(=O)NCc1ccco1)S(=O)(=O)c1ccccc1"
Ans: top end
